Assay read-out pIC50 on Pancreatic triacylglycerol lipase (Sus scrofa, UniProt P00591); records merged from the literature.
Molecular target: Pancreatic triacylglycerol lipase (Sus scrofa, UniProt P00591)
Sequence (P00591 whole entry): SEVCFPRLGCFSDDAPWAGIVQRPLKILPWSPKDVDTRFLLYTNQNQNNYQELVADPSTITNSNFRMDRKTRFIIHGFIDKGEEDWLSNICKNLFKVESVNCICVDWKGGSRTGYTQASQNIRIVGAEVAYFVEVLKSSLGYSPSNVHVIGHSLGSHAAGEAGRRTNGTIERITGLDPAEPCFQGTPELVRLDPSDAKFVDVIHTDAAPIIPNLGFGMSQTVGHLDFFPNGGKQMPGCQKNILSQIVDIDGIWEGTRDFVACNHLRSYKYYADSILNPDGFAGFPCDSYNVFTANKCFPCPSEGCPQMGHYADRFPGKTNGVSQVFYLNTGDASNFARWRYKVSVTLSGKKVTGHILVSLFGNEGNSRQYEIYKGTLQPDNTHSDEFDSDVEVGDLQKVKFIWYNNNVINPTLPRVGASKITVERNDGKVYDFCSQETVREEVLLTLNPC
pIC50: −log10 of the molar value.
Parameter threshold = 5. Response is True when pIC50 meets or exceeds it, else False.

**Q:** Could you verify whether the entry CC(C)=CCCC1(C)C=Cc2c(O)cc(-c3cc4ccc(O)cc4o3)cc2O1 (centres undefined) shows pIC50 of no less than 5?
**A:** True

**Q:** Could you verify whether the entry O=C(Nc1ccc2ncccc2c1)C(=O)c1ccc2c(c1)c1ccccc1n2Cc1ccc(Cl)cc1 shows pIC50 of no less than 5?
**A:** False

**Q:** Could you verify whether the entry COc1cc(OC)c(/C=C2\Cc3ccc(O)cc3C2=O)c(OC)c1 shows pIC50 of no less than 5?
**A:** False

**Q:** Could you verify whether the entry CCN(CC)c1ccc2c(c1)C(=O)/C(=C/c1ccc(O)c(OC)c1)C2 shows pIC50 of no less than 5?
**A:** True

**Q:** Could you verify whether the entry COc1cc(/C=C2\Cc3ccc(N(CCCCCCCCCCCCO)CCCCCCCCCCCCO)cc3C2=O)ccc1O shows pIC50 of no less than 5?
**A:** True

**Q:** Could you verify whether the entry COc1cc(OC)c(OC)cc1/C=C1\Cc2ccc(O)cc2C1=O shows pIC50 of no less than 5?
**A:** False
